Kindly supply the reported Inhibition values for the records listed here.
Tested on: Candida albicans
Settings: 20 µM
Description: Antifungal activity against Candida albicans ATCC 90028 (CO-ADD:FG_001); MIC in YNB media using NBS plates, by OD630
Results with a measured potency or affinity are listed apart.

Worked set:
1) COc1cccc(OC)c1C(=O)Nc1ccc(Cl)c(-c2nc3ccccc3s2)c1 : 4.58%
2) c1coc(CNc2nc(N3CCCCC3)nc3ccccc23)c1 : 4.06%
3) O=C(NC1CC1)c1ccc(CSCc2ccccc2Cl)o1 : 7.77%
4) CNC(=O)c1cc(S(=O)(=O)N2CCN(c3ccccn3)CC2)cs1 : 2.91%
5) N#Cc1nc(-c2ccccc2F)oc1NCCc1ccccc1 : 6.96%

Look up Inhibition for the entries below, preserving their order.
1. CCOc1ccc(-c2nc(CNCCc3ccc(F)cc3)cs2)cc1
2. CN(C(=O)c1cc2c(-c3cncnc3)cccc2[nH]1)c1ccccc1

["7.53%", "6.97%"]

---

Tested on: Candida albicans
Conditions: 20 µM
Potency and affinity values are given separately.
metric.name: Inhibition (%)
Answers are plain numbers, in %.

1) O=C(NC1CCCCC1)N1CCN(Cc2ccc3c(c2)OCO3)CC1 : 0.64

Batch request: Inhibition per item, same order as input.
1. COc1ccc(-c2cnc3ccc(NCc4ccc(S(N)(=O)=O)cc4)nn23)cn1
2. Cc1ccc(NC(=O)c2nc[nH]c2C(=O)Nc2nc3ccccc3[nH]2)c(C)c1
3. Cl.NCCCC(N)(C(=O)O)C(F)F.O (stereo not given) [EFLORNITHINE HYDROCHLORIDE]
4. COc1ccc(C2CC(c3cccs3)=NN2C(=O)c2ccco2)cc1OC (stereo not given)
5. Cc1cc(NCC(C)C)c2[nH]nc(-c3ccccc3)c2n1

[4.45, 23.3, 2.7, 5.76, 0.11]

Take each entry in turn and give its Inhibition.
1. COc1ccc(C2=NN(C3CCCCCC3)C(=O)C2(C)C)cc1OCCCCOc1ccc(-c2nn[nH]n2)cc1
2. FC(F)(F)c1cccc(-c2nc3c(NCc4ccncc4)nccc3[nH]2)c1
3. COc1ccc(C2(C(=O)Nc3ccc(Br)cc3)CCCC2)cc1
4. Cc1cc(C(=O)Nc2cnn(Cc3ccc(Cl)cc3Cl)c2)no1

1. 5.32
2. 3.63
3. 4.64
4. 11.5

---

System: Cryptococcus neoformans
Conditions: Concentration 20 uM; ASSAY_TEST Inhibition of Fungal Growth; detection method Resazurin; Absorption (OD600-OD570); plate type 384well; NBS; CORNING #3640
Description: Antifungal activity against Cryptococcus neoformans H99 ATCC 208821 (CO-ADD:FG_002); MIC in YNB media using NBS plates, by Resazurin OD(600-570)
Measured potencies and affinities stand elsewhere.
metric.name: Inhibition (%)
Give bare numbers, in %.

Some solved cases for reference:
1) COc1ccc(-c2cc(NC(=O)c3ccc(F)cc3Cl)ccc2OC)cc1 : 8.48
2) CNc1snc(C)c1C(=O)NCCOc1ccc(OC)cc1 : 1.78
3) Cc1nnc(NC(=O)c2cn(-c3ccccc3)nc2-c2ccccc2C)o1 : -7.03

Please supply Inhibition for each of the following items, keeping them in order.
1. Cc1cc(NCC(C)C)c2[nH]nc(-c3ccccc3)c2n1
2. CC(C)c1ncc(-c2ccncc2)c([C@H]2CC[C@H](CNC(=O)c3cccnc3)CC2)n1
3. N#Cc1nc(-c2ccccc2F)oc1NCCc1ccccc1
4. CCC(NC(=O)c1ccccc1NC(=O)c1ccc(C)cc1)C(=O)OC (configuration not stated)

1: -5.87; 2: -3.68; 3: -3.78; 4: -3.77

---

System: Klebsiella pneumoniae
Conditions: Concentration 20 uM; ASSAY_TEST Inhibition of Bacterial Growth; detection method Absorption (OD600); MEDIA CAMHB; plate type 384well; NBS; CORNING #3640; time 18 hr
Description: Antibacterial activity against Klebsiella pneumoniae MDR ATCC 70063 (CO-ADD:GN_003); MIC in CAMBH media using NBS plates, by OD(600)
Measured potencies and affinities stand elsewhere.
Please respond with reported Inhibition for every item in the list.
Answers without a unit are incomplete; give the number and then its unit.

Sample records with Inhibition:
1. COC(=O)C1=C(C)NC(C)=C(C(=O)OC(C)C)C1c1cccc2nonc12 (stereo not given) : 6.29%
2. CS(=O)(=O)c1ccccc1C(=O)N(Cc1ccccc1)c1ccccc1 : 9.63%
3. C[C@]1(O)C[C@@H](c2nc(-c3ccc4ccc(-c5ccccc5)nc4c3)c3c(N)nccn32)C1 : 12.51%

Would you be so kind as to report Inhibition for each listed record?
1. O=C(NCCN1CCCC1)c1cc(NCCCCN2CCC(F)(F)CC2)nc2ccc(Cl)cc12
2. COc1cccc(-c2cc3c(Nc4cccnc4)nccc3[nH]2)c1

["15.7%", "4.5%"]
